# Target: Fuc(a1-2)Gal(b1-4)GlcNAc(b1-3)Gal(b1-4)GlcNAc
# Procedure details: glycan array binding signal (z-score within array); higher = stronger binding
# Measurement context: glycan notation: IUPAC condensed, linker removed
The full list was thinned out, with the strongest signals kept by preference.
# glycan array binding signal (z-score) listing for each entry below
Returns: the value as a bare number; no unit string appended.

>>> value_measured("Flo11 (Saccharomyces cerevisiae), Q1H8S8 (protein) MGSSHHHHHHSSGLVPRGSHMFPTALVPRGSSEGTSCNSIVNGCPNLDFNWHMDQQNIMQYTLDVTSVSWVQDNTYQITIHVKGKENIDLKYLWSLKIIGVTGPKGTVQLYGYNENTYLIDNPTDFTATFEVYATQDVNSCQVWMPNFQIQFEYLQGSAAQYASSWQWGTTSFDLSTGCNNYDNQGHSQTDFPGFYWNIDCDNNCGGTKSS")
-0.01
>>> value_measured("Surfactant Protein D (rat); Neck + Carbohydrate Recognition Domain (NCRD) (Rattus norvegicus) (protein) MLLFLLSALVLLTQPLGYLEAEMKTYSHRTMPSACTLVMCSSVESGLPGRDGRDGREGPRGEKGDPGLPGAAGQAGMPGQAGPVGPKGDNGSVGEPGPKGDTGPSGPPGPPGVPGPAGREGALGKQGNIGPQGKPGPKGEAGPKGEVGAPGMQGSAGARGAGPKGERGVPGERGVPGNTGAAGSAGAMGPQGSPGARGPPGLKGDKGIPGDKGAKGESGLPDVASLRQQVEALQGQVQHLQAAFSQYKKVELFPNGQSVGEKIFKTAGFVKPFTEAQLLCTQAGGQLASPRSAAENAALQQLVVAKNEAAFLSMTDSKTEGKFTYPTGESLVYSNWAPGEPNDDGGSEDCVEIFTNGKWNDRACGEKRLVVCEF")
-0.183

Shifting focus to the binder that follows.
Consider CLEC-6 (Homo sapiens), Q8WXI8 (protein) MGLEKPQSKLEGGMHPQLIPSVIAVVFILLLSVCFIASCLVTHHNFSRCKRGTGVHKLEHHAKLKCIKEKSELKSAEGSTWNCCPIDWRAFQSNCYFPLTDNKTWAESERNCSGMGAHLMTISTEAEQNFIIQFLDRRLSYFLGLRDENAKGQWRWVDQTPFNPRRVFWHKNEPDNSQGENCVVLVYNQDKWAWNDVPCNFEASRICKIPGTTLN . Its measured glycan array binding signal (z-score) is -0.176

FYI, the data here is from the supplement of paper PMC8728848.
